The values you see were collected from patent US11053218B2.

- target: IKZF2 (Homo sapiens, UniProt Q96SW2+Q9UKS7)
- Sequence (Q9UKS7 whole entry): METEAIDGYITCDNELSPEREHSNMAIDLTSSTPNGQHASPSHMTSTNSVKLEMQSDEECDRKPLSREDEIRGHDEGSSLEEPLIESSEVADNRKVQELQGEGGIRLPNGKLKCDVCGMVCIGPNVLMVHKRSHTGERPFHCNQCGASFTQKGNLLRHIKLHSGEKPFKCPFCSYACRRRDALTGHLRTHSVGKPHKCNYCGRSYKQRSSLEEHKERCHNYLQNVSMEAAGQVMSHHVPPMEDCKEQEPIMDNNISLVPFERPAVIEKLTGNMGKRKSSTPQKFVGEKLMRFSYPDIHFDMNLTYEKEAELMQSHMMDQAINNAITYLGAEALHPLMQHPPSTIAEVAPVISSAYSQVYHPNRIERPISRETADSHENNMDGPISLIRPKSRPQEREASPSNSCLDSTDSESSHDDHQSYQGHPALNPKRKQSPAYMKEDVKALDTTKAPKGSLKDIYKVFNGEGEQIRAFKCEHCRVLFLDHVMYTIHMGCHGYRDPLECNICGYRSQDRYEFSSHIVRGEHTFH
- Sequence (Q96SW2 whole entry): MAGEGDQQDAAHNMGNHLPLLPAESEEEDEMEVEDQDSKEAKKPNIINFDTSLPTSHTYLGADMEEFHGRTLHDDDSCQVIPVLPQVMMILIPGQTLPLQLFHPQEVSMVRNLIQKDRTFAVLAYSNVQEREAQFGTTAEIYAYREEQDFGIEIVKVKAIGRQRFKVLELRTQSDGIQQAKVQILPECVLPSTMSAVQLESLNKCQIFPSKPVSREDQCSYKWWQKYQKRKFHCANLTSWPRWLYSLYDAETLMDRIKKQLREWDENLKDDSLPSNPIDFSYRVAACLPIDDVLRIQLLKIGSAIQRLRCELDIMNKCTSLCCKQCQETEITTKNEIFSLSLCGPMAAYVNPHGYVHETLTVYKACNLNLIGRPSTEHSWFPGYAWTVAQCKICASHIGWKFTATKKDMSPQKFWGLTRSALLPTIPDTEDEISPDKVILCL
- Sequence (Q16531 whole entry partner): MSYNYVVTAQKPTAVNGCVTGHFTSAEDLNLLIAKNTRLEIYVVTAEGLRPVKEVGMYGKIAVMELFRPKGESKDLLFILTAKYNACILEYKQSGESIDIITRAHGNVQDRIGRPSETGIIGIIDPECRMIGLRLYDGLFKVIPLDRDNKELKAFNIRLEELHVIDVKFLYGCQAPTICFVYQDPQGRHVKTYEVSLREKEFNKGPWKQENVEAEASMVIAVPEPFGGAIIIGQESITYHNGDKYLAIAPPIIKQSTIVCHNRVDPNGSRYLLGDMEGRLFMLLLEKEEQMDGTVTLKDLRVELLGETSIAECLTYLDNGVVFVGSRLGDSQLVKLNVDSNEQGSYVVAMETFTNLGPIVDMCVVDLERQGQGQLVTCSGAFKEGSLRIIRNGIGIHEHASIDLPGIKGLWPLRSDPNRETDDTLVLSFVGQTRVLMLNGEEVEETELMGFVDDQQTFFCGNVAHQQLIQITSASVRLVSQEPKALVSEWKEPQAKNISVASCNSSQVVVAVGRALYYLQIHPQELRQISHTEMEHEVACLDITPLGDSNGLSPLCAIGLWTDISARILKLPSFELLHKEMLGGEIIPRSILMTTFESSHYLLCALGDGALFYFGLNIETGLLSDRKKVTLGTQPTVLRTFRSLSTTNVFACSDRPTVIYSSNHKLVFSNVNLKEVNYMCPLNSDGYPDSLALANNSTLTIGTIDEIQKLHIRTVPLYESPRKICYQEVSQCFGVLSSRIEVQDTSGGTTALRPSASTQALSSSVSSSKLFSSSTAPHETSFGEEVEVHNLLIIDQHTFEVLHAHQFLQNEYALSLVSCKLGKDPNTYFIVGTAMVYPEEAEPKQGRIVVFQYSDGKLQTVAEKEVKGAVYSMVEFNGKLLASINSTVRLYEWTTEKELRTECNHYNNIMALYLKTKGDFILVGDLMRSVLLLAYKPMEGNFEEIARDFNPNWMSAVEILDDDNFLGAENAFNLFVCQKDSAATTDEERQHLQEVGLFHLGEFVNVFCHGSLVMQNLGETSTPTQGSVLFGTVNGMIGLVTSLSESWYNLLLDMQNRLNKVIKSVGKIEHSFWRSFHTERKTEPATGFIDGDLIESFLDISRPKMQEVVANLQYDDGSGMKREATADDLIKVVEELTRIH
- protocol-description: Prolabel quantification of IKZF2 protein levels in 293GT cells
- Format: cell-based
- test-parameters: Prolabel assay, 293GT cells; read-out: IKZF2 EC50
Here, each record is paired with measured DC50 data.

- compound: "O=C1CCC(N2Cc3cc(C4CCN(Cc5ccc6[nH]ncc6c5)CC4)ccc3C2=O)C(=O)N1 (stereo not drawn)"
  DC50: "11 nM"
- compound: "CC1(C)CN(Cc2ccccc2)CCC1c1ccc2c(c1)CN(C1CCC(=O)NC1=O)C2=O (stereo not drawn)"
  DC50: "> 30000 nM"
- compound: "N#CCc1ccc(CN2CCC(c3ccc4c(c3)CN(C3CCC(=O)NC3=O)C4=O)CC2)cc1 (stereo not drawn)"
  DC50: "9 nM"
- compound: "CC(C)(C)c1ccc(CN2CCC(c3ccc4c(c3)CN(C3CCC(=O)NC3=O)C4=O)CC2)cc1 (stereo not drawn)"
  DC50: "15 nM"
- compound: "CC1CN(Cc2ccccc2)CCC1c1ccc2c(c1)CN(C1CCC(=O)NC1=O)C2=O (stereo not drawn)"
  DC50: "67 nM"
- compound: "O=C1CCC(N2Cc3cc(C4CCN(CC5CCCc6ccccc65)CC4)ccc3C2=O)C(=O)N1 (stereo not drawn)"
  DC50: "14 nM"
